Below, each entry is listed alongside its reported phosphorylation enrichment.
target: Jak2 (UniProt O60674); experiment: phosphorylation enrichment, bacterial display (enrichment ratio); higher = better substrate or ligand; peptides without Tyr show the background
Sequence (O60674 whole entry, looked up): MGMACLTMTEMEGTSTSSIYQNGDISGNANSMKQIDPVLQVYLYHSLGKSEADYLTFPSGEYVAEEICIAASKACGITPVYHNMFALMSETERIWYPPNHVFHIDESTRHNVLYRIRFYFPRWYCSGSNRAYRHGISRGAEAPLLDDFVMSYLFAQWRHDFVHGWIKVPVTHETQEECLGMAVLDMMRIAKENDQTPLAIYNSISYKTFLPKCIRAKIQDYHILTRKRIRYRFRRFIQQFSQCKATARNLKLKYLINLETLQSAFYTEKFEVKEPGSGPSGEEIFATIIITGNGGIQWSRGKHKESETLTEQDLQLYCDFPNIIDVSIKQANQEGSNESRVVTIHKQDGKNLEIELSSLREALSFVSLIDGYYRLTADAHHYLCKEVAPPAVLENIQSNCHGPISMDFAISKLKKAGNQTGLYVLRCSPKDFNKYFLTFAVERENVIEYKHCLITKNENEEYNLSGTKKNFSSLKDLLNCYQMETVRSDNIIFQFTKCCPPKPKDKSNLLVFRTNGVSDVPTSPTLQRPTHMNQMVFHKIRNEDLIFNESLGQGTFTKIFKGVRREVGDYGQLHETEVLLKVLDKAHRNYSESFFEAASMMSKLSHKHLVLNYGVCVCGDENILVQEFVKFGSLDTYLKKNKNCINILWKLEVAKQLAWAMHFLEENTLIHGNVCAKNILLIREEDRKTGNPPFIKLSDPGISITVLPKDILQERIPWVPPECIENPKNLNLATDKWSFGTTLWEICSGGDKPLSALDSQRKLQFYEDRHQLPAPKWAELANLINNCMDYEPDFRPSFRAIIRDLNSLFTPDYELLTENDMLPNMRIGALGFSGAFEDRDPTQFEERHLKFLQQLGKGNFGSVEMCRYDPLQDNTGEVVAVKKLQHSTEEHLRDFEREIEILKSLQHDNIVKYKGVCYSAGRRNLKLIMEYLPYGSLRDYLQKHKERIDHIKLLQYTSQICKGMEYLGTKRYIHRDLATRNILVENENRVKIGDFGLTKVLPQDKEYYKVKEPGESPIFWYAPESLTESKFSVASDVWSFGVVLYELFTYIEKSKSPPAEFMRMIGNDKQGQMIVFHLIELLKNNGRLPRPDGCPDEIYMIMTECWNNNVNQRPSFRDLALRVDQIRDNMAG
Respond using a number only.

Sequence Chain: CERLPYDANKW [FLT1_Y815_S818N]
phosphorylation enrichment: 1.01

For the sequence shown here, FSEVRYVKEPY [HIPK4_Y170] , give the reported phosphorylation enrichment.
1.06

Proceed to QTLTDYDTRFF [CSNK2A3_Y131_I133T_YF]
0.832

Proceed to RKETFYTLSCR [GUCY2C_Y681]
1.03

====

Below, each entry is listed alongside its reported phosphorylation enrichment.
tested on: c-Src; test: phosphorylation enrichment, bacterial display (enrichment ratio); higher = better substrate or ligand; peptides without Tyr show the background
Respond using a number only.

Sequence Chain: FRASFYRRGDR [LTK_Y677_YF]
Test Value: 0.709
//
Sequence Chain: SVTCTYSPVLN [TP53_Y126_A129V]
Test Value: 0.815
//
Sequence Chain: MSRLKYPVSQQ [BTK_Y375_I370M]
Test Value: 0.491

Please turn your attention to the following entry.
For the sequence shown here, IGCHAYGDQYR [IDH1_Y135_R132C] , give the reported phosphorylation enrichment.
0.493

====

target: Grb2 SH2 (UniProt P62993); test: SH2 binding enrichment of the phosphorylated peptide, bacterial display (enrichment ratio); higher = better substrate or ligand; peptides without Tyr show the background
Sequence (P62993 whole entry, looked up): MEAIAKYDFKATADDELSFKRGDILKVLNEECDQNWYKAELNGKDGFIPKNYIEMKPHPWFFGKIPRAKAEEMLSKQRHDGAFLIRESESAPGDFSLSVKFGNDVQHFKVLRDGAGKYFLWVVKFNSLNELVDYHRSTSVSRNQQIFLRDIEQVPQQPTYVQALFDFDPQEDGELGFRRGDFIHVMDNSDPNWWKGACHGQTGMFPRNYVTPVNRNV
Below, each entry is listed alongside its reported SH2 binding enrichment.
Respond using a number only.

Sequence Chain: RPSELYYSKIG [SMG1_Y2253]
Tested System: Grb2 SH2 (UniProt P62993)
SH2 binding enrichment: 0.758
--
Sequence Chain: IRKAEYPFSSE [ATP2C1_Y452]
Tested System: Grb2 SH2 (UniProt P62993)
SH2 binding enrichment: 0.89
--
Sequence Chain: GITVAYTIPKK [UBA5_Y372]
Tested System: Grb2 SH2 (UniProt P62993)
SH2 binding enrichment: 0.71

For the sequence shown here, TGEKLYQRKEF [ZNF283_Y627] , give the reported SH2 binding enrichment.
0.889

Proceed to FGLTLYPNSRE [MEP1A_Y472_V469L]
1.12

====

molecular target: Hck (UniProt P08631); experiment: phosphorylation enrichment, bacterial display (enrichment ratio); higher = better substrate or ligand; peptides without Tyr show the background
Sequence (P08631 whole entry, looked up): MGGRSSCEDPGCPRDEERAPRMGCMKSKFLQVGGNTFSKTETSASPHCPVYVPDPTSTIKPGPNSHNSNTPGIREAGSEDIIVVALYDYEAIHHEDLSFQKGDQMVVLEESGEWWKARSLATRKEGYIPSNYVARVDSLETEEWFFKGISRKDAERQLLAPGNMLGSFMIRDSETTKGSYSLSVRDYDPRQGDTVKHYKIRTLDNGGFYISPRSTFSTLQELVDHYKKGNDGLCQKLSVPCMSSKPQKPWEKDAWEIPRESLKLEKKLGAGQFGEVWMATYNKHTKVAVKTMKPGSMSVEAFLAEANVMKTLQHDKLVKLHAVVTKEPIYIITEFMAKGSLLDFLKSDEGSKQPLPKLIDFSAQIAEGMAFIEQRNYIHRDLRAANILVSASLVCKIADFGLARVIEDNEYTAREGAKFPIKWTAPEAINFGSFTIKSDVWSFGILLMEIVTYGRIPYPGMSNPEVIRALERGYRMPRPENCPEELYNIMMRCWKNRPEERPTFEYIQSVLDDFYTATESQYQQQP
Reported Metric: phosphorylation enrichment
Respond using a number only.

Please review the entries below; each comes with its answer.
Sequence Chain: GLGGGCGGASG [KRT8_Y54_Y54C]
Test Value: 0.505
--
Sequence Chain: YGSGNYNDFGN [HNRNPA2B1_Y300]
Test Value: 0.632
--
Sequence Chain: DKITQYVEEVR [STX2_Y49_K54R]
Test Value: 0.517
--
Sequence Chain: PELINYQQHNS [BTK_Y361_H362Q]
Test Value: 1.25
--
Sequence Chain: ANNEFYFQVCA
Test Value: 0.536
--
Sequence Chain: CVAARYMDMKG [WFIKKN2_Y93_V96M]
Test Value: 0.471

For the sequence shown here, IGCHAYGDQYR [IDH1_Y135_R132C] , give the reported phosphorylation enrichment.
0.5

Proceed to WIGRKYKKVRF [F8_Y442_R437W]
0.546

Proceed to PYRFIYMAVQH [PTPN11_Y515_Q510P]
5.48

Proceed to IDSTPYRQWYE [RPS8_Y109]
0.514

Proceed to LISVSYDDWDF [GRIN2A_Y281_YF]
0.893

Taken from the supplement of paper PMC10065799.
